Data provenance: patent US9828352B2

Molecular target: human FAAH-1 (Homo sapiens, UniProt O00519)
Construct: membrane preparation
Sequence (O00519 whole entry): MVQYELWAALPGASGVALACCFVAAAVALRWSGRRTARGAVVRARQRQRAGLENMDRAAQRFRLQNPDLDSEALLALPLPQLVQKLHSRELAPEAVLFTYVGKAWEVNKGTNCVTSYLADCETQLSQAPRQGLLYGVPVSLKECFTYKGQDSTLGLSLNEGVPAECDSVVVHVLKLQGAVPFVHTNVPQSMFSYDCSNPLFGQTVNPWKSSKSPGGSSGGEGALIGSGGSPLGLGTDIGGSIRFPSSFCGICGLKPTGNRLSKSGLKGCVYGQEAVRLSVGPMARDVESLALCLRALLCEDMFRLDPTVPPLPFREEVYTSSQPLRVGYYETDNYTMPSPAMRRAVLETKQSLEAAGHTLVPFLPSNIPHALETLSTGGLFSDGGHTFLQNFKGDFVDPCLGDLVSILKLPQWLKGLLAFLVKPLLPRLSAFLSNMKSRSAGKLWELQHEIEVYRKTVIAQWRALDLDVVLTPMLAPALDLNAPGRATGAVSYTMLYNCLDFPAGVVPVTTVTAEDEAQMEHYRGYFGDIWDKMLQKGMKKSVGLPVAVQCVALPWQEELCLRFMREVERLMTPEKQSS
Test: Human recombinant Fatty Acid Amide Hydrolase-1 (FAAH-1) fluorescent assay, Hek293-hFAAH-1 membranes
Details: 3 separate experiments, each in triplicate
Method: Human Recombinant Fatty Acid Amide Hydrolase-1 (FAAH-1) Fluorescent Assay Hek293 cells stably transfected with human FAAH-1 were maintained in DMEM containing 10% FBS, 1% pen/strep and 500 μg/mL G418 to maintain selective pressure. […] Protein concentration was measured and samples aliquot stored at −80° C. until use. […] Fluorescence was detected with Tecan Infinite M200 nanoquant (Tecan Group Ltd.) at an excitation wavelength 350 nm and an emission wavelength 460 nm. […]
Structures can show the parent of a compound that is named as a salt.
Known IC50 of a selection of molecules
endpointLabel: IC50 (nM)

O=C(NCCCCN1CCN(c2cccc(Cl)c2Cl)CC1)Oc1cccc(N2CCC(F)(F)CC2)c1 [Example 9, hydrochloride]: 17
COc1ccccc1N1CCN(CCCCNC(=O)Oc2ccc3c(c2)[nH]c2ccccc23)CC1 [Example 33]: 37
O=C(NCCCN1CCN(c2cccc(Cl)c2Cl)CC1)Oc1ccc2c(c1)[nH]c1ccccc12 [Example 17]: 4.8
NC(=O)c1cccc(-c2ccc(OC(=O)NCCCCN3CCN(c4cccc(Cl)c4Cl)CC3)cc2F)c1 [Example 21]: 0.96
O=C(NCCCN1CCN(c2ccccc2C(F)(F)F)CC1)Oc1ccc(N2CCC(F)(F)CC2)cc1 [Example 18, hydrochloride]: 28
NC(=O)c1cccc(-c2ccc(OC(=O)NCCCCN3CCN(c4ccccc4)CC3)cc2)c1 [Example 25]: 3.5
O=C(NCCCCN1CCN(c2cccc(Cl)c2Cl)CC1)Oc1ccc2c(c1)[nH]c1ccccc12 [Example 28]: 8
